# assayedSystem: T1, CD123-Fc recombinant protein (human, UniProt P26951 19-305)
# T1 construct: Soluble staining reagent; also called CD123-Fc protein; not shown: Fc part
# T1 sequence (looked up): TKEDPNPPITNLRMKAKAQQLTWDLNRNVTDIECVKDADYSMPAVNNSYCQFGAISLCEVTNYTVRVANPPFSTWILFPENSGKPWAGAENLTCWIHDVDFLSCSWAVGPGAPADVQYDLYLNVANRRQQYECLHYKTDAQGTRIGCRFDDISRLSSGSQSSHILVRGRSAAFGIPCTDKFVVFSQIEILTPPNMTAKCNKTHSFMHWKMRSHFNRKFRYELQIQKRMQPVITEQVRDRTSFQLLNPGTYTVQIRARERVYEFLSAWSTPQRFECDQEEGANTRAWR
# method: FACS staining of CAR-T cells with CD123-Fc recombinant protein (FIG. 28)
propertyName: binding result

// query Form field: reported binding result of anti-CD123 scFv-C3 (scFv, also called C3 scFv) scFv: AIQMTQSPSSLSASVGDRVTITCRASQGIGTYLAWFQQKPGKAPKSLIYAASNLQSGVPSKFSGSGSGTDFTLTISNLQPEDFATYYCQQYKGYPLTFGGGTKLEIKGGGGSGGGGSGGGGSQVQLVQSGAEVKKPGSSVKVSCKASGGTFSSYAISWVRQAPGQGLEWMGGIIPIFGTANYAQKFQGRVTITADESTSTAYMELSSLRSEDTAVYYCARDSGWFGPRYYFDYWGQGTLVTVSS
// result binds

// query Form field: reported binding result of anti-CD123 scFv-C4 (scFv, also called C4 scFv) scFv: QSALTQPPSASGTPGQRVTISCSGSSSNIGSNYVNWYQQLPGTAPKLLIYRNNQRPSGVPDRFSGSKSGTSASLAISGLRSEDEADYYCAAWDDSLSGHGVFGTGTELTVLGGGGSGGGGSGGGGSQVQLVQSGPEVKKPGASVKVSCKASGYDFIRYYMNWVRQAPGQGPEWMGAIDPSDGDTTYGQKFQGRVTLTRDTFTSTVYMELSSLRSEDTAVYYCARDWELTNSYGLDVWGQGTTVTVSS
// result binds

// query Form field: reported binding result of anti-CD123 scFv-C1 (scFv, also called C1 scFv) scFv: QSALTQPASVSGSPGQSITISCTGTSSDIGAYNYVSWYQQHPGKAPKLIIYDVSHRPSGVSNRFSGSKSGNTASLTISGLQSEDEADYYCSSDTNNNTLVFGVGTKLTVLGGGGSGGGGSGGGGSEVHLVESGGGVVQPGRSLRLSCAASGFTFSSYGMHWVRQAPGKGLEWVAVIWYDGSNKYYADSVKGRFTISRDNSKNTLYLQMNSLRAEDTAVYYCARDRDGFFLPMYYFDYWGQGTLVTVSS
// result binds
